- TESTED_ON: 14-3-3γ (Homo sapiens, UniProt P61981)
- Construct: made in house; host or cells: E. coli NiCo21 (DE3)
- Sequence (P61981 whole entry): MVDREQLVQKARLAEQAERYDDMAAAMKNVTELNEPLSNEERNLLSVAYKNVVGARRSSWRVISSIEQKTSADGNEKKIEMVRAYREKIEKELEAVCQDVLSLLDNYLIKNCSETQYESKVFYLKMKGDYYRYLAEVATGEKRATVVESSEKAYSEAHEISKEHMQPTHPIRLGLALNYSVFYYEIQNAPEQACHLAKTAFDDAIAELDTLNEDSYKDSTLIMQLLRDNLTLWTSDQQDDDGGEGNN
- RUN_DESCRIPTION: Fluorescence anisotropy (FA) binary binding study: 14-3-3 titrated to fluorescein-labelled peptide
- EXPERIMENTAL_PARAMETERS: Table S4; ΔG minus ΔG of 1, FA; replicate 1
Where a SMILES comes first, the peptide text is derived from it. [ ]: non-standard residue; d: D form. ξ: configuration not given here. Phe(4-NO2) = N[C@@H](Cc1ccc([N+](=O)[O-])cc1)C(=O)O; ξAla(4-thiazolyl) = NC(Cc1cscn1)C(=O)O; pS = N[C@@H](COP(=O)(O)O)C(=O)O; β3hS = N[C@@H](CO)CC(=O)O; Nva = CCC[C@H](N)C(=O)O; βAla = NCCC(=O)O
PROPERTY_LABEL: ΔΔG to 1
A bare number is not enough; add the unit after it.

CCC[C@H](NC(=O)[C@H](N)CCCCN)C(=O)N[C@@H](Cc1ccc([N+](=O)[O-])cc1)C(=O)NC(Cc1cscn1)C(=O)N[C@@H](COP(=O)(O)O)C(=O)N[C@@H](Cc1ccc(O)cc1)C(=O)N[C@@H](CO)CC(=O)NCCC(=O)N[C@@H](Cc1ccc([N+](=O)[O-])cc1)C(=O)N[C@@H](CCCCN)C(N)=O (stereo partly drawn) [4a] (H-[dK][Nva][Phe(4-NO2)][ξAla(4-thiazolyl)][pS]Y[β3hS][βAla][Phe(4-NO2)]K-NH2; N-terminus and C-terminus assumed) : -0.1 kcal/mol
CCC[C@H](NC(=O)[C@H](N)CCCCN)C(=O)N[C@@H](Cc1ccc([N+](=O)[O-])cc1)C(=O)NC(Cc1cscn1)C(=O)N[C@@H](COP(=O)(O)O)C(=O)N[C@@H](C)C(=O)N[C@@H](CO)CC(=O)NCCC(=O)N[C@@H](Cc1ccc([N+](=O)[O-])cc1)C(=O)N[C@@H](CCCCN)C(N)=O (stereo partly drawn) [4c] (H-[dK][Nva][Phe(4-NO2)][ξAla(4-thiazolyl)][pS]A[β3hS][βAla][Phe(4-NO2)]K-NH2; N-terminus and C-terminus assumed) : 1.9 kcal/mol
CCC[C@H](NC(=O)[C@H](N)CCCCN)C(=O)N[C@@H](Cc1ccc([N+](=O)[O-])cc1)C(=O)NC(Cc1cscn1)C(=O)N[C@@H](COP(=O)(O)O)C(=O)N[C@@H](Cc1ccc([N+](=O)[O-])cc1)C(=O)N[C@@H](CO)CC(=O)NCCC(=O)N[C@@H](Cc1ccc(O)cc1)C(=O)N[C@@H](CCCCN)C(N)=O (stereo partly drawn) [5a] (H-[dK][Nva][Phe(4-NO2)][ξAla(4-thiazolyl)][pS][Phe(4-NO2)][β3hS][βAla]YK-NH2; N-terminus and C-terminus assumed) : 2.1 kcal/mol
CCC[C@H](NC(=O)[C@H](N)CCCCN)C(=O)N[C@@H](Cc1ccc([N+](=O)[O-])cc1)C(=O)NC(Cc1cscn1)C(=O)N[C@@H](COP(=O)(O)O)C(=O)N[C@@H](Cc1ccc([N+](=O)[O-])cc1)C(=O)N[C@@H](CO)CC(=O)NCCC(=O)N[C@@H](C)C(=O)N[C@@H](CCCCN)C(N)=O (stereo partly drawn) [5c] (H-[dK][Nva][Phe(4-NO2)][ξAla(4-thiazolyl)][pS][Phe(4-NO2)][β3hS][βAla]AK-NH2; N-terminus and C-terminus assumed) : 2.4 kcal/mol
CCC[C@H](NC(=O)[C@H](N)CCCCN)C(=O)N[C@@H](Cc1ccc([N+](=O)[O-])cc1)C(=O)NC(Cc1cscn1)C(=O)N[C@@H](COP(=O)(O)O)C(=O)N[C@@H](Cc1ccccc1)C(=O)N[C@@H](CO)CC(=O)NCCC(=O)N[C@@H](Cc1ccc([N+](=O)[O-])cc1)C(=O)N[C@@H](CCCCN)C(N)=O (stereo partly drawn) [4b] (H-[dK][Nva][Phe(4-NO2)][ξAla(4-thiazolyl)][pS]F[β3hS][βAla][Phe(4-NO2)]K-NH2; N-terminus and C-terminus assumed) : -0.1 kcal/mol

Req: Requested read-out: ΔΔG to 1. Entry: CCC[C@H](NC(=O)[C@H](N)CCCCN)C(=O)N[C@@H](Cc1ccc([N+](=O)[O-])cc1)C(=O)N[C@@H](C)C(=O)N[C@@H](COP(=O)(O)O)C(=O)N[C@@H](Cc1ccc([N+](=O)[O-])cc1)C(=O)N[C@@H](CO)CC(=O)NCCC(=O)N[C@@H](Cc1ccc([N+](=O)[O-])cc1)C(=O)N[C@@H](CCCCN)C(N)=O [3a] (H-[dK][Nva][Phe(4-NO2)]A[pS][Phe(4-NO2)][β3hS][βAla][Phe(4-NO2)]K-NH2; N-terminus and C-terminus assumed)
Resp: 0.4 kcal/mol

Req: Query CCC[C@H](NC(=O)[C@H](N)CCCCN)C(=O)N[C@@H](Cc1ccc([N+](=O)[O-])cc1)C(=O)NC(Cc1cscn1)C(=O)N[C@@H](COP(=O)(O)O)C(=O)N[C@@H](Cc1ccc([N+](=O)[O-])cc1)C(=O)N[C@@H](CO)CC(=O)NCCC(=O)N[C@@H](Cc1ccccc1)C(=O)N[C@@H](CCCCN)C(N)=O (stereo partly drawn) [5b] (H-[dK][Nva][Phe(4-NO2)][ξAla(4-thiazolyl)][pS][Phe(4-NO2)][β3hS][βAla]FK-NH2; N-terminus and C-terminus assumed) next
Resp: 1.9 kcal/mol

====

Measured ΔG of individual entries
- TESTED_ON: 14-3-3γ (Homo sapiens, UniProt P61981)
- Construct: made in house; host or cells: E. coli NiCo21 (DE3)
- RUN_DESCRIPTION: Fluorescence anisotropy (FA) binary binding study: 14-3-3 titrated to fluorescein-labelled peptide
- EXPERIMENTAL_PARAMETERS: Table S3; from FA KD; replicate 1
Where a SMILES comes first, the peptide text is derived from it. [ ]: non-standard residue; d: D form. The star is where a group is joined. ξ: configuration not given here. FITC = O=C1OC2(c3ccc(O)cc3Oc3cc(O)ccc32)c2ccc(NC(=S)*)cc21; Phe(4-NO2) = N[C@@H](Cc1ccc([N+](=O)[O-])cc1)C(=O)O; ξAla(4-thiazolyl) = NC(Cc1cscn1)C(=O)O; pS = N[C@@H](COP(=O)(O)O)C(=O)O; β3hS = N[C@@H](CO)CC(=O)O; Nva = CCC[C@H](N)C(=O)O; AEA = NCCOCC(=O)O; βAla = NCCC(=O)O

Req: Report ΔG for CCC[C@H](NC(=O)[C@@H](CCCCN)NC(=O)COCCNC(=S)Nc1ccc2c(c1)C(=O)OC21c2ccc(O)cc2Oc2cc(O)ccc21)C(=O)N[C@@H](Cc1ccc([N+](=O)[O-])cc1)C(=O)NC(Cc1cscn1)C(=O)N[C@@H](COP(=O)(O)O)C(=O)N[C@@H](Cc1ccc([N+](=O)[O-])cc1)C(N)=O (stereo partly shown) [2h] ({FITC-AEA}-[dK][Nva][Phe(4-NO2)][ξAla(4-thiazolyl)][pS][Phe(4-NO2)]-NH2) tested on 14-3-3γ (Homo sapiens, UniProt P61981).
Resp: -7,08 kcal/mol

Req: Query CCC[C@H](NC(=O)[C@@H](CCCCN)NC(=O)COCCNC(=S)Nc1ccc2c(c1)C(=O)OC21c2ccc(O)cc2Oc2cc(O)ccc21)C(=O)N[C@@H](Cc1ccc([N+](=O)[O-])cc1)C(=O)NC(Cc1cscn1)C(=O)N[C@@H](COP(=O)(O)O)C(=O)N[C@@H](Cc1ccc([N+](=O)[O-])cc1)C(=O)N[C@@H](CO)CC(N)=O (stereo partly drawn) [2g] ({FITC-AEA}-[dK][Nva][Phe(4-NO2)][ξAla(4-thiazolyl)][pS][Phe(4-NO2)][β3hS]-NH2) next
Resp: -7,71 kcal/mol

Req: Query CCC[C@H](NC(=O)[C@@H](CCCCN)NC(=O)COCCNC(=S)Nc1ccc2c(c1)C(=O)OC21c2ccc(O)cc2Oc2cc(O)ccc21)C(=O)N[C@@H](Cc1ccc([N+](=O)[O-])cc1)C(=O)NC(Cc1cscn1)C(=O)N[C@@H](COP(=O)(O)O)C(N)=O (stereo partly shown) [2i] ({FITC-AEA}-[dK][Nva][Phe(4-NO2)][ξAla(4-thiazolyl)][pS]-NH2) next
Resp: -6,22 kcal/mol

Req: Query CCC[C@H](NC(=O)[C@@H](CCCCN)NC(=O)COCCNC(=S)Nc1ccc2c(c1)C(=O)OC21c2ccc(O)cc2Oc2cc(O)ccc21)C(=O)N[C@@H](Cc1ccc([N+](=O)[O-])cc1)C(=O)NC(Cc1cscn1)C(=O)N[C@@H](COP(=O)(O)O)C(=O)N[C@@H](Cc1ccc([N+](=O)[O-])cc1)C(=O)N[C@@H](CO)CC(=O)NCCC(N)=O (stereo partly drawn) [2f] ({FITC-AEA}-[dK][Nva][Phe(4-NO2)][ξAla(4-thiazolyl)][pS][Phe(4-NO2)][β3hS][βAla]-NH2) next
Resp: -8,10 kcal/mol
